Source: the supplement of paper PMC10567573

B1: EDARADD (parent)
chain: VEKVLRRWVDEEWPKRERGDPSRH

# Variants of: B1
# assay-overview: protein stability index of a GFP-peptide fusion (GPS, HEK-293T) (PSI 1-6); higher = more stable;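 also: lentivirally expressed fusions sorted by FACS into six bins by GFP to DsRed ratio, PSI derived from sequencing read proportions per bin multiplied by bin number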
# condition-set: c terminus: a fixed tail appended
Hi there, I'd appreciate the recorded protein stability index for every entry that follows.
Write the number on its own, no unit after it.

Query: Would you mind telling me what protein stability index value was observed for "K3H" ?
Result: 5.03

Query: Using the record for "W13I" , report its protein stability index.
Result: 3.35

Query: protein stability index for "E11I" ?
Result: 2.7

Query: Can you look up the measured protein stability index of "V1C" for me?
Result: 2.77

Query: Tell me the measured protein stability index of "V1K" , please.
Result: 2.85

Query: Value lookup for protein stability index; key = "W13T"
Result: 3.38

Query: Value lookup for protein stability index; key = "E12N"
Result: 1.92

Query: // query protein stability index value for entry "R7H"
Result: 3.56

Query: Using the record for "E17S" , report its protein stability index.
Result: 2.44

Query: So what's the measured protein stability index for this one? "L5Q"
Result: 2.78

Query: What protein stability index value was documented for this variant, "P14Y" ?
Result: 2.32

Query: Data request, read-out protein stability index, for "V4Y"
Result: 2.5

Query: Entry "R23G" has what protein stability index?
Result: 2.59

Query: What measured protein stability index goes with "D10C" ?
Result: 2.69

Query: Report protein stability index for "P14G" please.
Result: 2.22

Query: # query: protein stability index of entry "D20K"
Result: 3.07

Query: Need protein stability index of "P21D" , thanks.
Result: 3.57

Query: // lookup protein stability index for "R16K"
Result: 2.48

Query: Find the recorded protein stability index belonging to "R7V" and report it.
Result: 3.43

Query: Given "G19Q" , state its recorded protein stability index.
Result: 2.73

Query: Param item = "P14T" ; retrieve measured protein stability index.
Result: 2.49

Query: Tell me the measured protein stability index of "V4S" , please.
Result: 4.21
